- System Tested: HER2 S310F (Homo sapiens, UniProt P04626, S310F)
- Construct: expressed in transfected cells; host or cells: BaF3 (murine pro-B)
- Sequence (P04626 23-1255 S310F): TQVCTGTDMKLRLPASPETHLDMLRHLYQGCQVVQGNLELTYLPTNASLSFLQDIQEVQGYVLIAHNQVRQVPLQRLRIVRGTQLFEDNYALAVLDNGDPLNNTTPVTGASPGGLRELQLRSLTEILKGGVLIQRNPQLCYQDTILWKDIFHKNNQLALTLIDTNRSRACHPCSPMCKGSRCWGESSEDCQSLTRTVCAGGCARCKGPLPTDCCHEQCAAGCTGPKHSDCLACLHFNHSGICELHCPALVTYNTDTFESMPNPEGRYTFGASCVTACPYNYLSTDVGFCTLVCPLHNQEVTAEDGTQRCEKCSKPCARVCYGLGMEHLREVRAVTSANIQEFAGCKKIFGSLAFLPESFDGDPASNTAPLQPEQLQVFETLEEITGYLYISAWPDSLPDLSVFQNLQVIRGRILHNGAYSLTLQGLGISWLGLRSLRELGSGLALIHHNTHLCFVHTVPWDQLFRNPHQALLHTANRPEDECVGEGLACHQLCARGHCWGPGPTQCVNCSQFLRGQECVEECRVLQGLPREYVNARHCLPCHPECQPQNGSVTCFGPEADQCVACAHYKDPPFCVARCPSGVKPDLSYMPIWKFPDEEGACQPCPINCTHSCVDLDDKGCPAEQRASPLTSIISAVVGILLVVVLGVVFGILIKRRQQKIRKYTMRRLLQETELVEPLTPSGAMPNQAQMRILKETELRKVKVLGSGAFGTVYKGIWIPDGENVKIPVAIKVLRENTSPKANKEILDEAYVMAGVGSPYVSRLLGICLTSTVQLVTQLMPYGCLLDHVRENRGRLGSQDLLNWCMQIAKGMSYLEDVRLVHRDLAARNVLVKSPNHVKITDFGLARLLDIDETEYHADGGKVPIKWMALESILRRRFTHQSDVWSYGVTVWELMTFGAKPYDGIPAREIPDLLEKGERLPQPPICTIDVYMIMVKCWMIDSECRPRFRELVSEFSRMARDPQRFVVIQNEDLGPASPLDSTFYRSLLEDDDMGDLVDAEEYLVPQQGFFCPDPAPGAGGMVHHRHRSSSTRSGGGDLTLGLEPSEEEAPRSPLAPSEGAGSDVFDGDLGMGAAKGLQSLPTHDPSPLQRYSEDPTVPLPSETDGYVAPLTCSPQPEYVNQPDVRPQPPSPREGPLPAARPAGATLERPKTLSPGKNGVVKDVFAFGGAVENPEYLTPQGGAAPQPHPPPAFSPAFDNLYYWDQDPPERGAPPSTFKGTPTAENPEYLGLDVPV
- Test Protocol: Activity for inhibiting HER2 (Table B), HER2 S310F
- Assay type: cell-based
- Condition Description: read-out: HER2 S310F, potency code (IC50)
- Description: EC50 values were determined with the same application.
Metric Name: IC50

* C=C(F)C(=O)Nc1cc2c(Nc3ccc(OCc4ccccn4)c(Cl)c3)ncnc2cc1OCCN1CCOCC1 [compound 109] | 0.01 to 0.02 µM
* C=CC(=O)Nc1cc2c(Nc3ccc(OCc4ccccn4)c(Cl)c3)ncnc2cc1OCCN1CC2(CCN2C)C1 [compound 115] | 0.03 to 0.05 µM
* C=CC(=O)Nc1cc2c(Nc3ccc(OCc4cccc(F)c4)c(Cl)c3)ncnc2cc1OCCCN1CCOCC1 [compound 3] | 0.02 to 0.03 µM

Proceeding to the next compound to report its IC50.
Ask: API: value(readout= IC50, system= HER2 S310F (Homo sapiens, UniProt P04626, S310F), query= C=CC(=O)Nc1cc2c(Nc3ccc(OCc4ccccn4)c(Cl)c3)ncnc2cc1OC[C@H]1C[C@@H]2CN(C)C[C@@H]2C1 [compound 103] )
Result: 0.01 to 0.02 µM
